attributeMeasured: melting point

Please review the entries below; each comes with its answer.
C=C1N(c2ccccc2)C(=O)OC12CCNCC2    185 to 186 °C
CC1CCc2ccc(OCC3CO3)cc2O1 (stereo not given)    67 to 69 °C
Cc1ccc(C(=O)C=CN(C)C)o1    123 to 125 °C
CN(Cc1ccc(NC(=O)C2=Cc3cc(-c4ccc(N5CCCC5)cc4)ccc3OCC2)cc1)C1CCOCC1    210 to 211 °C
CCCC(=CC=CC(C)=CC(=O)O)c1cc(C(C)(C)C)cc(C(C)(C)C)c1    143 to 144 °C

Prompt: What value of melting point has been reported for the following compound? `CC1(C)CC(=O)C(SCc2ccc(F)cc2)=C(O)C1`
Completion: 112 °C

---

Below, each of the molecules is paired with its reported melting point value.

CNC(=O)ON=C(C)CSC(F)(F)F    56 to 58 °C
Nc1ccc2oc3c(c2c1)CCCCCC3    97 to 98 °C
COc1ccc2c(c1)N(c1ccc(F)cc1)C(=O)C2(C)NC(=O)OCc1ccccc1 (stereo not given)    167 to 169 °C
COc1ccc2nc(NC(=O)C(CC3CCCC3)c3ccc(S(=O)(=O)N(C)Cc4ccccc4)cc3)sc2n1 (stereo not given)    206 to 208 °C
COc1ccc(-c2cc(=O)n(CC3CC3)nc2-c2ccc(OC)cc2)cc1    129 °C

Moving on to the next molecule.
Prompt: I would be grateful if you could share the reported melting point for `CC(=O)Oc1ccc(N2C(=O)CC(=O)N2c2ccccc2)cc1` .
Completion: 132 to 134 °C

---

Measured melting point by item

Prompt: I have this compound here, Cc1sc2c(c1C(=O)c1ccc([N+](=O)[O-])cc1)CCC2C(=O)O (stereo unspecified) , and I need its recorded melting point.
Completion: 156 to 158 °C

Prompt: What about COc1ccc(CC(O)C(=O)c2ccccc2)cc1 (stereo unspecified) ?
Completion: 100 °C

Prompt: Same lookup for CCCOc1ccc2c(c1)C(c1ccc(OC)cc1OCC(=O)O)C(CN)C2c1ccc2c(c1)OCO2 (stereo unspecified) , please.
Completion: 237 to 242 °C

Prompt: Could you do the same for `CCOC(=O)NNC(=O)NCCOc1ccccc1` , please?
Completion: 170 to 173 °C

Prompt: How about this compound: COc1cc(OC)c2c(=O)[nH]c(-c3ccc(OCCNC(C)C)c(-c4ccc(S(C)=O)cc4)n3)nc2c1 (stereo unspecified)
Completion: 93 to 95 °C

---

The molecules listed here are annotated with their melting point.

Worked examples, 9 molecules total:
c1ccc2c(c1)SCCCN2N=C1CCNCC1    113 to 115 °C
CCCCC(=O)c1c(-c2ccc3cc(OCC(=O)O)ccc3c2)oc2ccccc12    130 to 132 °C
O=C(O)CCCCCn1sc2ccccc2c1=O    59 to 61 °C
CCOC(=O)CC[C@H](NC(=O)c1ccc(NCc2cnc3nc(N)nc(N)c3c2)cc1)C(=O)OCC    262 °C
CCOc1nsc(NC(=O)N(C)C)c1C#N    204 to 205 °C
CC(=O)N1CCC2(CC1)CC(=O)c1c(ccc([N+](=O)[O-])c1O)O2    201 to 202 °C
CCN1CCCC(NC(=O)c2ccccc2Nc2ccnc3c(Cl)cccc23)C1 (stereo not given)    173 to 175 °C
COC(=O)c1ccc(C(C(N)=O)C(C)c2cc(Cl)ccc2N2CCCC2)cc1 (stereo not given)    133 to 135 °C
COc1ccc(CC2=C(C)N=NC2=O)cc1OC1CCCC1    186 to 187 °C

Could you now look at the following molecule, please?
Prompt: Give the measured melting point of CC(=O)Oc1cc2c(c3ccccc13)N(C(=O)OC(C)OC(C)=O)c1ccccc1S2 (stereo not given) .
Completion: 76 to 78 °C
